# System: A498 renal
# PROTOCOL: NCI tumour cell line growth inhibition, 48 h
Overview of reported TGI across a group of compounds:

Some compounds with known TGI results, for comparison:
COMPOUND: c1cc(OCCN2CCCC2)ccc1CNc1ccc2nc(CCC3CCCCC3)[nH]c2c1
TGI: 2.77 µM

COMPOUND: O=C(CSCC(=O)N/N=C\c1ccc(F)cc1F)N/N=C\c1ccc(F)cc1F
TGI: > 100 µM

COMPOUND: N#Cc1ccc(C2ON=C(c3ccccc3)N2C23CC4CC(CC(C4)C2)C3)cc1 (stereo not given)
TGI: > 10 µM

Now look at this entry.
Sample Cc1nc(C(N)=S)sc1C(=O)CC(=O)C(=O)Nc1ccc(Br)cc1 — what was its TGI?
> 100 µM

====

# Test system: SNB-75 CNS
# PROTOCOL: NCI tumour cell line growth inhibition, 48 h
ENDPOINT: TGI

Some compounds with known TGI results, for comparison:
SMILES_RECORD: O=C(/C=C/c1ccc([N+](=O)[O-])cc1)N1CCN(CCOC(c2ccc(F)cc2)c2ccc(F)cc2)CC1
ASSAYED_TARGET: SNB-75 CNS
TGI: > 100 µM
//
SMILES_RECORD: COC(=O)c1c2c(c(C)[n+]([O-])c1C)C(=O)C(NCc1ccccc1)=CC2=O
ASSAYED_TARGET: SNB-75 CNS
TGI: 13.9 µM
//
SMILES_RECORD: O=C1NC(=O)C(CCC(=O)c2cccc3ccccc23)C(=O)N1
ASSAYED_TARGET: SNB-75 CNS
TGI: > 100 µM
//
SMILES_RECORD: COc1ccc(C(=O)/C=C/c2cc(-c3ccc(OC)c(OC)c3)n[nH]2)cc1OC
ASSAYED_TARGET: SNB-75 CNS
TGI: 2.96 µM

Sample Cc1nc(C(N)=S)sc1C(=O)CC(=O)C(=O)Nc1ccc(Br)cc1 — what was its TGI?
> 100 µM

====

# Tested on: UACC-62 melanoma
# PROTOCOL: NCI tumour cell line growth inhibition, 48 h
ENDPOINT: TGI

Sample CCCCCCCCCCCCc1ccc(S(=O)(=O)O)cc1.[Cu+2] — what was its TGI?
> 100 µM

Request: CCOC(=O)c1c(NC(=S)Nc2ccccc2)sc2c1CCN(C)C2
> 100 µM

Request: COc1cc(OCCN(C)C)c2[nH]c(C(=O)N3CC(CCl)c4c3cc(N)c3ccccc43)cc2c1 (stereo not given)
< 0.01 µM

Request: CC(=O)NC(CCCNC(=O)N(C)N=O)C(=O)NCc1ccccc1 (stereo not given)
> 100 µM

Request: COc1ccc(OC2(c3cc(OC)ccc3OC)OC(=O)c3ccccc32)cc1 (stereo not given)
> 100 µM

====

Overview of reported TGI across a group of compounds:
# Tested on: UACC-62 melanoma
# PROTOCOL: NCI tumour cell line growth inhibition, 48 h
Please reply with the bare figure in µM and do not write the unit itself.

Some compounds with known TGI results, for comparison:
SMILES_RECORD: COc1cc2c(c(OC)c1OC)-c1ccc(SC)c(=O)cc1[C@@H](NC(=O)c1cccc([N+](=O)[O-])c1)CC2
TGI / µM: 36.4
//
SMILES_RECORD: COc1cc(-n2cc(-c3ccc(Cl)cc3)n(-c3ccccc3)c2=O)cc(OC)c1OC
TGI / µM: 28.2

Now look at this entry.
Sample Clc1cc(Br)ccc1-c1ccc(CNCC2CCNCC2)o1 — what was its TGI?
3.21

====

# Tested on: SK-MEL-2 melanoma
# PROTOCOL: NCI tumour cell line growth inhibition, 48 h
ENDPOINT: GI50

Sample Clc1cc(Br)ccc1-c1ccc(CNCC2CCNCC2)o1 — what was its GI50?
1750 nM

Request: CCOC(=O)c1c(NN2CCN(CC(F)(F)F)CC2)oc(/C=C2\C=Nc3ncccc32)c1O
2250 nM

Request: COc1cc2c(cc1OC)[C@@H]1C(=O)c3ccc4c(c3O[C@@H]1CO2)C[C@H](C(C)C)O4
18500 nM

Request: CCN1/C(=C/C(C)=C/c2sc3ccc4ccccc4c3[n+]2CC)Sc2ccc3ccccc3c21
193 nM

Request: Nc1nc(Sc2ccc([N+](=O)[O-])c3nonc23)c2ncn(C3OC(CO)C(O)C3O)c2n1 (configuration not stated)
393 nM

Request: Cc1cccc2c(=O)c3c(sc12)c(NCCCNCCO)nc1ccccc13
1750 nM

Request: COc1cc2c3c(n(CCCN=[N+]=[N-])c(=O)c2cc1OC)-c1ccc(F)cc1C3=O
> 100000 nM

Request: COc1cc2c(/C=C3\C(=O)N(C)c4ccccc43)c[nH]c2cc1C
10200 nM

Request: CCCCN(CCCC)P(=O)(Oc1ccccc1)Oc1ccccc1
11800 nM

====

# Tested on: MDA-MB-435
# PROTOCOL: NCI tumour cell line growth inhibition, 48 h
Overview of reported TGI across a group of molecules:

Some molecules with known TGI results, for comparison:
MOLECULE: C[C@]12CC[C@H]3[C@@H](CC=C4C[C@@H](O)CC[C@@]43C)[C@@H]1C/C(=C\c1ccncc1)[C@@H]2O
TGI: 47.9 µM
//
MOLECULE: c1ccc(CSC(SCc2ccccc2)c2cccc3ccccc23)cc1
TGI: > 10 µM
//
MOLECULE: CC(C)C1=Cc2ccc3c(c2C(=O)C1=O)CCCC3
TGI: 21.4 µM
//
MOLECULE: CCc1cc2c(c(OCC(F)(F)F)c(C(=O)NC3CCN(C(=O)CO)CC3)n2C)c(=O)n1CC(=O)c1ccccc1
TGI: > 100 µM
//
MOLECULE: FC(F)(F)c1ccc2c(-c3cc[nH]c3)ccnc2c1
TGI: > 100 µM

Now look at this entry.
Give TGI (MDA-MB-435) of the following molecule: COc1cc2c3c(n(CCCN=[N+]=[N-])c(=O)c2cc1OC)-c1ccc(F)cc1C3=O
> 100 µM

====

Overview of reported GI50 across a group of compounds:
# Tested on: MALME-3M melanoma
# PROTOCOL: NCI tumour cell line growth inhibition, 48 h

SMILES_RECORD: CCc1cc2c(c(OCC(F)(F)F)c(C(=O)NC3CCN(C(=O)CO)CC3)n2C)c(=O)n1CC(=O)c1ccccc1
ASSAYED_TARGET: MALME-3M melanoma
GI50: > 100 µM
--
SMILES_RECORD: COc1ccc(Sc2[nH]c(C=O)c3ccccc23)cc1
ASSAYED_TARGET: MALME-3M melanoma
GI50: 14.2 µM

Sample O=C1CN=C(c2ccc[nH]2)c2cc(Cl)ccc2N1 — what was its GI50?
> 100 µM

Request: O=C1OC2(c3ccc(O)cc3Oc3cc(O)ccc32)c2cccc3cccc1c23
20.5 µM

Request: COc1cc(OC)c(C(=O)/C=C/c2ccc(C#N)cc2)c(OC)c1
2.23 µM

Request: O=S(O)O.O=S(O)O.[Co].[NH2-].[NH2-].[NH2-].[NH2-]
> 100 µM

Request: CC(C)CCN(CCC(C)C)CC(=O)Nc1ccc(S(=O)(=O)c2ccc(NC(=O)CN(CCC(C)C)CCC(C)C)cc2)cc1
1.57 µM

Request: CCCN(CCC)c1ccc(/C=N/NC(=O)c2cccnc2)c(C)c1
13 µM

Request: COc1cc2c(cc1OC)[C@@H]1C(=O)c3ccc4c(c3O[C@@H]1CO2)C[C@H](C(C)C)O4
5.56 µM

Request: COc1ccc(Nc2ncc(I)c(NCCCNC(=O)C3CCC3)n2)cc1
7.39 µM

Request: OCc1ccc(-c2nc(-c3ccc4c(c3)OCO4)c(-c3ccccn3)[nH]2)cc1
> 25 µM

====

# Test system: SF-539 CNS
# PROTOCOL: NCI tumour cell line growth inhibition, 48 h
Overview of reported TGI across a group of compounds:

Sample CCCCCCCCCCCCCCCCn1cc[n+](C)c1 — what was its TGI?
2.38 µM

Request: CCc1cc2c(c(OCC(F)(F)F)c(C(=O)NC3CCN(C(=O)CO)CC3)n2C)c(=O)n1CC(=O)c1ccccc1
> 100 µM

====

# Test system: KM12 colon
# PROTOCOL: NCI tumour cell line growth inhibition, 48 h; in the data active means GI50 below about 0.43 µM; inactive means the rest
Result category, one only: 1 for active, -1 for inactive

MOLECULE: CCCN(CCC)c1ccc(/C=N/NC(=O)c2cccnc2)c(C)c1
ASSIGNED_CATEGORY: -1

MOLECULE: OCc1ccc(-c2nc(-c3ccc4c(c3)OCO4)c(-c3ccccn3)[nH]2)cc1
ASSIGNED_CATEGORY: -1

MOLECULE: COC(=O)c1c2c(c(C)[n+]([O-])c1C)C(=O)C(NCc1ccccc1)=CC2=O
ASSIGNED_CATEGORY: -1

MOLECULE: COC(=O)[C@H](Cc1cn(C)cn1)NC(=O)[C@H](CC(C)C)NC(=O)Nc1cc(C(F)(F)F)cc(C(F)(F)F)c1
ASSIGNED_CATEGORY: -1

MOLECULE: CCCCCCOC(=O)CC1=C(C)/C(=C/c2[nH]c(-c3ccc[nH]3)cc2OC)N=C1C
ASSIGNED_CATEGORY: 1

MOLECULE: O=C(Nc1ccc(Cl)c(C(F)(F)F)c1)Nc1ccc(-c2cccnc2)cc1N1CCC(CO)CC1
ASSIGNED_CATEGORY: -1

MOLECULE: Cc1nnn(C)c1-c1cnc2c3ccc(C(C)(C)O)cc3n([C@H](c3ccccc3)C3CCOCC3)c2c1
ASSIGNED_CATEGORY: 1

MOLECULE: CCOC(=O)Cc1csc(NC(=O)C(OC(=O)c2ccc(Cl)cc2)c2ccccc2)n1 (stereo not given)
ASSIGNED_CATEGORY: -1

Name the outcome recorded for CC(C)(C)c1cc(C[P+](c2ccccc2)(c2ccccc2)c2ccccc2)cc(C(C)(C)C)c1O in the assay.
1

Request: CCCCN(CCCC)P(=O)(Oc1ccccc1)Oc1ccccc1
-1

Request: CCOc1ccc(-c2nc3ccc(-c4nc5ccc(N6CCN(C)CC6)cc5[nH]4)cc3[nH]2)cc1
-1

Request: ClCc1ccccc1Cn1cnc2nc(Cl)nc(Cl)c21
-1

Request: O=c1[nH]c(-c2ccc(Cl)c(Cl)c2)cn1-c1ccc(Cl)cc1
-1

Request: Nc1nc(Sc2ccc([N+](=O)[O-])c3nonc23)c2ncn(C3OC(CO)C(O)C3O)c2n1 (stereo not given)
-1

Request: CCOc1ccccc1/C=N\N=C(N/N=C/c1ccccc1OCC)N/N=C/c1ccccc1OCC
-1

Request: c1cc(OCCN2CCCC2)ccc1CNc1ccc2nc(CCC3CCCCC3)[nH]c2c1
-1

Request: COc1cc2c3c(n(CCCN=[N+]=[N-])c(=O)c2cc1OC)-c1ccccc1C3=O
-1

Request: CC(C)CCN(CCC(C)C)CC(=O)Nc1ccc(S(=O)(=O)c2ccc(NC(=O)CN(CCC(C)C)CCC(C)C)cc2)cc1
-1

Request: COc1cc2c(/C=C3\C(=O)N(C)c4ccccc43)c[nH]c2cc1C
-1

Request: Cc1ccc(/C(=N/NS(=O)(=O)c2cc(C)c(Cl)cc2Cl)Sc2cc(Cl)c(C)cc2S(N)(=O)=O)cc1
-1
